Below, each of the variants is paired with its reported self-cleavage value.
B1: HDV Ribozyme (parent)
chain: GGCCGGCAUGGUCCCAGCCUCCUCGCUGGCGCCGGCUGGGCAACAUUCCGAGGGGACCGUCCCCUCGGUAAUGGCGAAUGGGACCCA

# Variants of: B1
# assay summary: self-cleavage, relative activity (ratio to wild type); higher = more cleavage; co-transcriptional
I'd appreciate a reply containing only the number, no unit.

Asked: Entry G52A G82A needs its self-cleavage filled in; supply it.
Given back: 0.439

Asked: Entry A45C C63A needs its self-cleavage filled in; supply it.
Given back: 0.748

Asked: Entry U9G C44A needs its self-cleavage filled in; supply it.
Given back: 0.415

Asked: Entry C26G G67C needs its self-cleavage filled in; supply it.
Given back: 0.8

Asked: Entry U23C A87G needs its self-cleavage filled in; supply it.
Given back: 0.855

Asked: Entry G52U G82C needs its self-cleavage filled in; supply it.
Given back: 0.194

Asked: Entry A16G A71C needs its self-cleavage filled in; supply it.
Given back: 0.575

Asked: Entry C4G C57U needs its self-cleavage filled in; supply it.
Given back: 0.529

Asked: Entry G2A A51G needs its self-cleavage filled in; supply it.
Given back: 0.141

Asked: Entry G28C G80C needs its self-cleavage filled in; supply it.
Given back: 0.166

Further cases:
Asked: Entry C18U G28C needs its self-cleavage filled in; supply it.
Given back: 0.089

Asked: Entry G28U C49U needs its self-cleavage filled in; supply it.
Given back: 0.0639

Asked: Entry U12C G54C needs its self-cleavage filled in; supply it.
Given back: 0.356

Asked: Entry C41G A70U needs its self-cleavage filled in; supply it.
Given back: 0.746

Asked: Entry C18G U47C needs its self-cleavage filled in; supply it.
Given back: 0.185

Asked: Entry C15U G29A needs its self-cleavage filled in; supply it.
Given back: 0.154

Asked: Entry C64G U69G needs its self-cleavage filled in; supply it.
Given back: 0.91

Asked: Entry G1A C15U needs its self-cleavage filled in; supply it.
Given back: 0.0665
